Target: cFMS (Homo sapiens, UniProt P07333)
Construct: THP-1 cells (human acute monocytic leukemia cell line) were serum-starved for 4 hours; endogenous in cells
Sequence (P07333 20-972): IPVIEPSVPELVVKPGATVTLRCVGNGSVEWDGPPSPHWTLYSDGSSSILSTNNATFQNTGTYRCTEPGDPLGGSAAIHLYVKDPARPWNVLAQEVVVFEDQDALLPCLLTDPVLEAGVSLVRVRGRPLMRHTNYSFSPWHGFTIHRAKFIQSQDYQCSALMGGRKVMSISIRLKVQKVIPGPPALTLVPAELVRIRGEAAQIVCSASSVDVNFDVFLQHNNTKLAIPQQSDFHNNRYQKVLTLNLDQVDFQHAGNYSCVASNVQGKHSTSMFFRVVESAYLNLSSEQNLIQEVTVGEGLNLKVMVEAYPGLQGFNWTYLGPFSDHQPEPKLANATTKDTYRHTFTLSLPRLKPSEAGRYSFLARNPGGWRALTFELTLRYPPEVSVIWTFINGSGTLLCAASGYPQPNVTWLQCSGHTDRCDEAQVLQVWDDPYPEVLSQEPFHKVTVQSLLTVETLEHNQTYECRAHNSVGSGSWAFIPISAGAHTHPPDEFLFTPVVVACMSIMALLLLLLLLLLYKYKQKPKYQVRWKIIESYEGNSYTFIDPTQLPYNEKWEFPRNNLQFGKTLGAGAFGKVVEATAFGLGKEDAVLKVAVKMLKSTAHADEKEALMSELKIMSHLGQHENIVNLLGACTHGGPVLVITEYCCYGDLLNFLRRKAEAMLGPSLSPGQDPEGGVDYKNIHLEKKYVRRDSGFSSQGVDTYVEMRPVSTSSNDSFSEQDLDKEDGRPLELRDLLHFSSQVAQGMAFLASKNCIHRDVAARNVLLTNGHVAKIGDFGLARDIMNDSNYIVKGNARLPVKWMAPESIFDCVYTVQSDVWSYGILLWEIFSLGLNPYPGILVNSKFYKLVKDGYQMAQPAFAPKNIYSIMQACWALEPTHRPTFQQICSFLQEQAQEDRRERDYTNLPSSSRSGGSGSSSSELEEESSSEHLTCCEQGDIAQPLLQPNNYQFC
Experiment: cFMS Cell-Based Assay (Example C)
Settings: averaged IC50; phospho-cFMS in THP-1 cells stimulated with 250 ng/mL recombinant human MCSF; read-out: cFMS Cell ELISA IC50
Structures can show the parent of a compound that is named as a salt.
metric: IC50 (nM)

>>> recorded_result("COCCOc1ccn2c(C(=O)Nc3cccc4c3cnn4Cc3cccc(Cl)c3)cnc2c1 [Example 141]")
4.4
>>> recorded_result("CC(O)c1ccn2c(C(=O)Nc3cccc4c3cnn4Cc3ccccc3)cnc2c1 (stereo not shown) [Example 147]")
72.6
>>> recorded_result("Cc1nn(Cc2ccn(C(C)C)n2)c2cccc(NC(=O)c3cnc4cc(OCCN5CCN(C(C)C)CC5)ccn34)c12 [Example 49]")
11.8
>>> recorded_result("Cc1ccc(-c2ccn3c(C(=O)Nc4cccc5c4c(C)nn5Cc4cccc(C)n4)cnc3c2)cn1 [Example 50, di-hydrochloride]")
5.8
>>> recorded_result("CCCc1ccc(Cn2nc(C)c3c(NC(=O)c4cnc5cc(OCCN6CCN(C)[C@@H](C)C6)ccn45)cccc32)nc1 [Example 38]")
15.4
>>> recorded_result("CN1CCN(CCOc2ccn3c(C(=O)Nc4cccc5c4cnn5Cc4cccc(C(=O)N(C)C)c4)cnc3c2)CC1 [Example 97, dihydrochloride]")
10.4
>>> recorded_result("COCCOc1ccn2c(C(=O)Nc3cccc4c3cnn4Cc3cccc(C(N)=O)c3)cnc2c1 [Example 94]")
46.9

====

Molecular target: PDGFR beta (Homo sapiens)
Construct: endogenous in cells; host or cells: HS27 human fibroblast cell line
Assay: Phospho PDGFR LICOR Cell Assay (Example B)
Type: cell-based
Settings: averaged IC50; PDGFR beta phosphorylation in HS27 human fibroblast cell line, PDGF-BB stimulation 10 minutes, normalized to total ERK
pIC50: −log10 of the molar value. Where a name gives a salt, the structure may show the parent alone.
// reported pIC50 per item
metric: pIC50

>>> recorded_result("Cc1nn(Cc2cccc(C(C)C)n2)c2cccc(NC(=O)c3cnc4cc(OCCN5CCN(C)CC5)ccn34)c12")
8.32
>>> recorded_result("CNC(=O)c1cccc(Cn2ncc3c(NC(=O)c4cnc5cc(OCCOC)ccn45)cccc32)c1")
7.13
>>> recorded_result("Cc1nn(Cc2cccc(C3CC3)n2)c2cccc(NC(=O)c3cnc4cc(OCCN5CCN(C)C(C)(C)C5)ccn34)c12")
6.61
>>> recorded_result("Cc1cc(C)nc(Cn2nc(C)c3c(NC(=O)c4cnc5cc(OCCN6CCN(C)[C@@H](C)C6)ccn45)cccc32)c1")
5.78
>>> recorded_result("COCCOc1ccn2c(C(=O)Nc3cccc4c3cnn4Cc3ccc(C)nc3)cnc2c1")
8.16
>>> recorded_result("COCCOc1ccn2c(C(=O)Nc3ccc(Cl)c4c3cnn4Cc3ccccc3)cnc2c1")
6.44
>>> recorded_result("CN1CCN(CCOc2ccn3c(C(=O)Nc4cccc5c4cnn5Cc4cccnc4)cnc3c2)CC1 [Example 102, trihydrochloride]")
7.75
>>> recorded_result("COCCOc1ccn2c(C(=O)Nc3cccc4c3cnn4Cc3ccncc3)cnc2c1")
6.35

====

// reported IC50 per item
Target: c-KIT (Homo sapiens)
Construct: M-07e cells (human acute megakaryoblastic leukemia cell line) were serum-starved for 4 hours; endogenous in cells; host or cells: M-07e cells (human acute megakaryoblastic leukemia cell line)
Assay: c-KIT Cell-Based Assay (Example D)
Conditions: averaged IC50; phospho-c-KIT in M-07e cells stimulated with 150 ng/ml recombinant human SCF; read-out: cKIT Cell ELISA IC50
Structures can show the parent of a compound that is named as a salt.
metric: IC50 (µM)

>>> recorded_result("Cc1nn(Cc2cccc(C3CC3)n2)c2cccc(NC(=O)c3cnc4cc(OCCN5CCN(C)[C@@H](C)C5)ccn34)c12 [Example 26, dihydrochloride]")
0.0279
>>> recorded_result("CC(O)c1ccn2c(C(=O)Nc3cccc4c3cnn4Cc3ccccc3)cnc2c1 (stereo not shown)")
0.0931
>>> recorded_result("O=C(Nc1cccc2c1cnn2Cc1ccccc1)c1cnc2ccc(C(O)CO)cn12 (stereo not shown)")
2.1
>>> recorded_result("Cc1cccc(Cn2nc(C)c3c(NC(=O)c4cnc5cc(CCN6CCN(C)CC6)ccn45)cccc32)n1")
4.07

====

// reported IC50 per item
Target: cFMS (Homo sapiens)
Construct: THP-1 cells (human acute monocytic leukemia cell line) were serum-starved for 4 hours; endogenous in cells; host or cells: THP-1 cells (human acute monocytic leukemia cell line)
Experiment: cFMS Cell-Based Assay (Example C)
Settings: averaged IC50; phospho-cFMS in THP-1 cells stimulated with 250 ng/mL recombinant human MCSF; read-out: cFMS Cell ELISA IC50
Where a name gives a salt, the structure may show the parent alone.
metric: IC50 (nM)

>>> recorded_result("COCCOc1ccn2c(C(=O)Nc3cccc4c3cnn4-c3ccccc3)cnc2c1")
99.1
>>> recorded_result("Cc1nn(Cc2cc(C)n(C(C)C)n2)c2cccc(NC(=O)c3cnc4cc(OCCN5CCN(C(C)C)CC5)ccn34)c12")
25.3
>>> recorded_result("COCCOc1ccn2c(C(=O)Nc3cccc4c3cnn4CC3CCN(C(=O)OC(C)(C)C)CC3)cnc2c1")
131
>>> recorded_result("Cc1nn(Cc2ccn(C(C)C)n2)c2cccc(NC(=O)c3cnc4cc(OCCN5CCN(C)CC5)ccn34)c12 [Example 48, bis hydrochloride]")
13.3
>>> recorded_result("COCCOc1ccn2c(C(=O)Nc3ccc(Cl)c4c3cnn4Cc3ccccc3)cnc2c1")
228
>>> recorded_result("COCCOc1ccn2c(C(=O)Nc3cccc4c3c(C)nn4CC3CCCCO3)cnc2c1 (stereo not shown)")
122
>>> recorded_result("Cc1nn(Cc2ccc(C(C)C)cn2)c2cccc(NC(=O)c3cnc4cc(OCCN5CCN(C)[C@@H](C)C5)ccn34)c12")
35.7

====

// reported IC50 per item
Molecular target: c-KIT (Homo sapiens, UniProt P10721)
Construct: M-07e cells (human acute megakaryoblastic leukemia cell line) were serum-starved for 4 hours; endogenous in cells
Sequence (P10721 26-976): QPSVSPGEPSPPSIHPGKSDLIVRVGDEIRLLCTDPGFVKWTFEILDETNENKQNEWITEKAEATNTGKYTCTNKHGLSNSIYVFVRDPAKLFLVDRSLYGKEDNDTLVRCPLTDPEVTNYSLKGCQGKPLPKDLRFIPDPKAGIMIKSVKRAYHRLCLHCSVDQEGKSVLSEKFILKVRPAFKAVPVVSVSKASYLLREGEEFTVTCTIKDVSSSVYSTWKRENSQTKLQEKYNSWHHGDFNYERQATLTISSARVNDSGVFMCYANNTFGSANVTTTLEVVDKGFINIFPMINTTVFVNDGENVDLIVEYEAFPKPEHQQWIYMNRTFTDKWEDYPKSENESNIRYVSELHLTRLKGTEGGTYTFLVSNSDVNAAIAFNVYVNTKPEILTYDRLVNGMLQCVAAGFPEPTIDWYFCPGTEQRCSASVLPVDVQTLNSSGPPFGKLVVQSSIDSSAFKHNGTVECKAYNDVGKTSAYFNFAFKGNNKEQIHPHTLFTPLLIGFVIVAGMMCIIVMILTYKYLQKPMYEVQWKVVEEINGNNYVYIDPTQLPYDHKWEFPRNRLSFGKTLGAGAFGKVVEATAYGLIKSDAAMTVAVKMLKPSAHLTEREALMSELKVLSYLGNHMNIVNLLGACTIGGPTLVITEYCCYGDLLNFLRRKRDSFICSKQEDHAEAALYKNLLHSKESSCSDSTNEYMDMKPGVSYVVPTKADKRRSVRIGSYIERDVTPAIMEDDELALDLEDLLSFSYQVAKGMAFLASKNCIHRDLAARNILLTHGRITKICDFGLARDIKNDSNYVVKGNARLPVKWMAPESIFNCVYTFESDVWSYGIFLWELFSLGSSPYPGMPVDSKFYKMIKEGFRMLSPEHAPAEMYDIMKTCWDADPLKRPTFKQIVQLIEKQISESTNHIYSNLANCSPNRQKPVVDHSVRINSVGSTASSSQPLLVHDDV
Assay: c-KIT Cell-Based Assay (Example D)
Conditions: averaged IC50; phospho-c-KIT in M-07e cells stimulated with 150 ng/ml recombinant human SCF; read-out: cKIT Cell ELISA IC50
Description: The ability of compounds of Formula I to inhibit c-KIT activation in cells was determined by the following assay. […] Cells were lysed in a manner which preserves phosphoproteins, and the lysate was analyzed by ELISA (R&D Systems, Human Phospho-SCF R DuoSet IC DYC3527), in which total c-KIT protein in the lysate is captured and phosphotyrosine residues of c-Kit are detected. A standard curve, made using purified phospho-SCF R protein, was used to quantify phospho-c-KIT in compound-treated wells. […]
Structures can show the parent of a compound that is named as a salt.
metric: IC50 (nM)

>>> recorded_result("Cc1cccc(Cn2nc(C)c3c(NC(=O)c4cnc5cc(C(C)O)ccn45)cccc32)n1 (centres unmarked) [Example 76]")
5000
>>> recorded_result("COC(=O)c1cccc(Cn2ncc3c(NC(=O)c4cnc5cc(OCCN6CCN(C)CC6)ccn45)cccc32)c1 [Example 96, dihydrochloride]")
3.8
>>> recorded_result("Cc1ccc(Cn2nc(C)c3c(NC(=O)c4cnc5cc(OCCN6CCN(C)CC6)ccn45)cccc32)cn1 [Example 85]")
303
>>> recorded_result("COCCOc1ccn2c(C(=O)Nc3c(Br)ccc4c3cnn4Cc3ccccc3)cnc2c1 [Example 134]")
11
>>> recorded_result("Cc1nn(Cc2cccc(C3CC3)n2)c2cccc(NC(=O)c3cnc4cc(OCCN5CCN(C)CC5)ccn34)c12 [Example 47]")
48.5
>>> recorded_result("Cc1cccc(Cn2nc(C)c3c(NC(=O)c4cnc5cc(OCCN(C)C)ccn45)cccc32)n1 [Example 60]")
4560
>>> recorded_result("COCCOc1ccn2c(C(=O)Nc3cccc4c3cnn4CC3CCCN(C(C)=O)C3)cnc2c1 (centres unmarked) [Example 132]")
604
>>> recorded_result("Cc1nn(Cc2cccc(C(C)C)n2)c2cccc(NC(=O)c3cnc4cc(OCCN5CC6(CN(C)C6)C5)ccn34)c12 [Example 4]")
81.6

====

Biological target: PDGFR beta (Homo sapiens, UniProt P09619)
Construct: endogenous in cells; host or cells: HS27 human fibroblast cell line
Sequence (P09619 33-1106): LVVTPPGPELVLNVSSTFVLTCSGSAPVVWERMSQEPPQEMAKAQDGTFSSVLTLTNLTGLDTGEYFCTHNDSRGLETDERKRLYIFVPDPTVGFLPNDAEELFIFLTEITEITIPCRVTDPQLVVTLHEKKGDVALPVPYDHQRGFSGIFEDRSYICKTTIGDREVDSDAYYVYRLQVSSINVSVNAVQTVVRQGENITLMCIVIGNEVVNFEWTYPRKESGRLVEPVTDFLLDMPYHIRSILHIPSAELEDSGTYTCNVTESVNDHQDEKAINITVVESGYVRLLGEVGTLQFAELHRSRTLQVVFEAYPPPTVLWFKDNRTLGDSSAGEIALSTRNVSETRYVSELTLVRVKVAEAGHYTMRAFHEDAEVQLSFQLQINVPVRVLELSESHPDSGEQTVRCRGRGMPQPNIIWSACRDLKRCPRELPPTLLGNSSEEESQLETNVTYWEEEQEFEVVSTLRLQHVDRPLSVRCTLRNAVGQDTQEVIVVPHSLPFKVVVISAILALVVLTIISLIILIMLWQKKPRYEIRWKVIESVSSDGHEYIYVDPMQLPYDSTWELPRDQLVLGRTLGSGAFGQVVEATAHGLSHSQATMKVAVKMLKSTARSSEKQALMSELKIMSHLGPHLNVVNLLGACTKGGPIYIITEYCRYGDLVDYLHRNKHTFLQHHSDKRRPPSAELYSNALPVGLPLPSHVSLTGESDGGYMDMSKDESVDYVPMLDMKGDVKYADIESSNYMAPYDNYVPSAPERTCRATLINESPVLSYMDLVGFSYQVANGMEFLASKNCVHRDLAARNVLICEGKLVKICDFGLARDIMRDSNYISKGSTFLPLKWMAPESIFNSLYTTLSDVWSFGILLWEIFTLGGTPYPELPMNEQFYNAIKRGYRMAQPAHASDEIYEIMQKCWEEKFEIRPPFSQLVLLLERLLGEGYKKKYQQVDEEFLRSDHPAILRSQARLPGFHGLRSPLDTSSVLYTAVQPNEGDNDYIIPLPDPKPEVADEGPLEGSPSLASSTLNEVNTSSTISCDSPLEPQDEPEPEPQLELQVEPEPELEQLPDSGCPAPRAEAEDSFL
Test: Phospho PDGFR LICOR Cell Assay (Example B)
Format: cell-based
Conditions: averaged IC50; PDGFR beta phosphorylation in HS27 human fibroblast cell line, PDGF-BB stimulation 10 minutes, normalized to total ERK
// reported IC50 per item
metric: IC50

>>> recorded_result("Cc1ncc(Cn2ncc3c(NC(=O)c4cnc5cc(OCCN6CCN(C)CC6)ccn45)cccc32)s1")
"1 nM"
>>> recorded_result("CCN1CCN(CCOc2ccn3c(C(=O)Nc4cccc5c4c(C)nn5Cc4cccc(C5CC5)n4)cnc3c2)CC1")
"313 nM"
>>> recorded_result("Cc1nn(Cc2cccc(C(C)C)n2)c2cccc(NC(=O)c3cnc4cc(OCCN5CCN(C)[C@@H](C)C5)ccn34)c12")
"18 nM"
>>> recorded_result("Cc1cccc(Cn2nc(C)c3c(NC(=O)c4cnc5cc(CCN(C)C)ccn45)cccc32)n1")
"3160 nM"

All figures here come from patent US10669269B2.
